// provenance: PubChem BioAssay AID1963440

system: NCI-H1417 complex spheroids, growth % test/control; assay: Anticancer human tumor NCI-H1417 cell line growth inhibition [Asc]; settings: second compound 1 µM; first compound 0.00316 µM; stronger effect = lower value;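 also: spheroids exposed to compounds for 7 days; 100% = DMSO vehicle control wells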
Output True for records whose viability, T/C is lower than 90%, False for records at or above 90%.

Challenge: Just wondering, is viability, T/C of CCN1CCN(Cc2ccc(Nc3ncc(F)c(-c4cc(F)c5nc(C)n(C(C)C)c5c4)n3)nc2)CC1 + Cc1c(S(C)(=O)=O)c(-c2cc(F)cc(N3CCN(c4ccc(NS(=O)(=O)c5ccc(NC(CCN6CCC(C(=O)OCCCP(=O)(O)O)CC6)CSc6ccccc6)c(S(=O)(=O)C(F)(F)F)c5)cc4)CC3)c2)c(-c2ccc(Cl)cc2)n1C(C)C below 90%?
Response given: True

Challenge: Param item: CNC(C)C(=O)NC1CN(S(=O)(=O)c2cccc(S(=O)(=O)N3CCC4CCC(C(=O)NC(c5ccccc5)c5ccccc5)N4C(=O)C(NC(=O)C(C)NC)C3)c2)CCC2CCC(C(=O)NC(c3ccccc3)c3ccccc3)N2C1=O (configuration not stated) + Cc1c(S(C)(=O)=O)c(-c2cc(F)cc(N3CCN(c4ccc(NS(=O)(=O)c5ccc(NC(CCN6CCC(C(=O)OCCCP(=O)(O)O)CC6)CSc6ccccc6)c(S(=O)(=O)C(F)(F)F)c5)cc4)CC3)c2)c(-c2ccc(Cl)cc2)n1C(C)C
Response given: True

Challenge: Param item: Cn1ncnc1[C@H]1c2n[nH]c(=O)c3cc(F)cc(c23)N[C@@H]1c1ccc(F)cc1 + CNC(C)C(=O)NC1CN(S(=O)(=O)c2cccc(S(=O)(=O)N3CCC4CCC(C(=O)NC(c5ccccc5)c5ccccc5)N4C(=O)C(NC(=O)C(C)NC)C3)c2)CCC2CCC(C(=O)NC(c3ccccc3)c3ccccc3)N2C1=O
Response given: False

Challenge: Param item: COc1c(OCCCN2CCOCC2)ccc2c3n(c(=NC(=O)c4cnc(N)nc4)nc12)CCN3 + CNC(C)C(=O)NC1CN(S(=O)(=O)c2cccc(S(=O)(=O)N3CCC4CCC(C(=O)NC(c5ccccc5)c5ccccc5)N4C(=O)C(NC(=O)C(C)NC)C3)c2)CCC2CCC(C(=O)NC(c3ccccc3)c3ccccc3)N2C1=O
Response given: False

Challenge: Param item: COc1c(OCCCN2CCOCC2)ccc2c3n(c(=NC(=O)c4cnc(N)nc4)nc12)CCN3 + Cc1c(S(C)(=O)=O)c(-c2cc(F)cc(N3CCN(c4ccc(NS(=O)(=O)c5ccc(NC(CCN6CCC(C(=O)OCCCP(=O)(O)O)CC6)CSc6ccccc6)c(S(=O)(=O)C(F)(F)F)c5)cc4)CC3)c2)c(-c2ccc(Cl)cc2)n1C(C)C
Response given: True

Challenge: Param item: NC1CCC(NC2CC2c2ccccc2)CC1 (configuration not stated) + Cc1c(S(C)(=O)=O)c(-c2cc(F)cc(N3CCN(c4ccc(NS(=O)(=O)c5ccc(NC(CCN6CCC(C(=O)OCCCP(=O)(O)O)CC6)CSc6ccccc6)c(S(=O)(=O)C(F)(F)F)c5)cc4)CC3)c2)c(-c2ccc(Cl)cc2)n1C(C)C
Response given: True

====

System: NCI-H1417 complex spheroids, growth % test/control
Assay: Anticancer human tumor NCI-H1417 cell line growth inhibition [Asc];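 also: spheroids exposed to compounds for 7 days; 100% = DMSO vehicle control wells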
Settings: second compound 3.16 µM; first compound 0.0316 µM; stronger effect = lower value
From the text: Multicellular complex tumor spheroid response to apoptosis pathway targeting inhibitors Alrizomadlin, Pelcitoclax, and Dasminapant in combination with a variety of drugs and investigational agents in selected tumor cell lines […] Compounds. […] If the clinical Cmax for an agent had not been determined, the highest concentration tested was 10 microM. […]
I'd appreciate it if you could supply viability, T/C values for the items below.
Number only, in %; omit the unit.

Challenge: Name the recorded viability, T/C for C=C(F)C(=O)N1CCN(c2nc(OCC3CCCN3C)nc3c2CCN(c2cccc4cccc(Cl)c24)C3)CC1CC#N (centres undefined) + Cc1c(S(C)(=O)=O)c(-c2cc(F)cc(N3CCN(c4ccc(NS(=O)(=O)c5ccc(NC(CCN6CCC(C(=O)OCCCP(=O)(O)O)CC6)CSc6ccccc6)c(S(=O)(=O)C(F)(F)F)c5)cc4)CC3)c2)c(-c2ccc(Cl)cc2)n1C(C)C .
Response given: 2.93

Challenge: Param item: COc1c(OCCCN2CCOCC2)ccc2c3n(c(=NC(=O)c4cnc(N)nc4)nc12)CCN3 + Cc1c(S(C)(=O)=O)c(-c2cc(F)cc(N3CCN(c4ccc(NS(=O)(=O)c5ccc(NC(CCN6CCC(C(=O)OCCCP(=O)(O)O)CC6)CSc6ccccc6)c(S(=O)(=O)C(F)(F)F)c5)cc4)CC3)c2)c(-c2ccc(Cl)cc2)n1C(C)C
Response given: 1.29

Challenge: Param item: C=CC(=O)N1CCN(c2nc(=O)n(-c3c(C)ccnc3C(C)C)c3nc(-c4c(O)cccc4F)c(F)cc23)C(C)C1 (centres undefined) + Cc1c(S(C)(=O)=O)c(-c2cc(F)cc(N3CCN(c4ccc(NS(=O)(=O)c5ccc(NC(CCN6CCC(C(=O)OCCCP(=O)(O)O)CC6)CSc6ccccc6)c(S(=O)(=O)C(F)(F)F)c5)cc4)CC3)c2)c(-c2ccc(Cl)cc2)n1C(C)C
Response given: 3.89

Challenge: Param item: CCN1CCN(Cc2ccc(Nc3ncc(F)c(-c4cc(F)c5nc(C)n(C(C)C)c5c4)n3)nc2)CC1 + Cc1c(S(C)(=O)=O)c(-c2cc(F)cc(N3CCN(c4ccc(NS(=O)(=O)c5ccc(NC(CCN6CCC(C(=O)OCCCP(=O)(O)O)CC6)CSc6ccccc6)c(S(=O)(=O)C(F)(F)F)c5)cc4)CC3)c2)c(-c2ccc(Cl)cc2)n1C(C)C
Response given: 2.77

====

I'd appreciate it if you could supply viability, T/C values for the items below.
test system: NCI-H1417 complex spheroids, growth % test/control; assay: Anticancer human tumor NCI-H1417 cell line growth inhibition [Asc]; settings: second compound 0.03 µM; first compound 0.0316 µM; stronger effect = lower value;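 also: spheroids exposed to compounds for 7 days; 100% = DMSO vehicle control wells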
Number only, in %; omit the unit.

Challenge: Name the recorded viability, T/C for CCN1CCN(Cc2ccc(Nc3ncc(F)c(-c4cc(F)c5nc(C)n(C(C)C)c5c4)n3)nc2)CC1 + CCN1C(C(=O)NC23CCC(C(=O)O)(CC2)CC3)C(c2cccc(Cl)c2F)C2(C(=O)Nc3cc(Cl)ccc32)C12CCCCC2 .
Response given: 93.6

Challenge: Param item: NC1CCC(NC2CC2c2ccccc2)CC1 (stereo not drawn) + CCN1C(C(=O)NC23CCC(C(=O)O)(CC2)CC3)C(c2cccc(Cl)c2F)C2(C(=O)Nc3cc(Cl)ccc32)C12CCCCC2
Response given: 78.6

Challenge: Param item: C#Cc1c(F)ccc2cc(O)cc(-c3ncc4c(N5CC6CCC(C5)N6)nc(OCC56CCCN5CC(F)C6)nc4c3F)c12 (stereo not drawn) + CCN1C(C(=O)NC23CCC(C(=O)O)(CC2)CC3)C(c2cccc(Cl)c2F)C2(C(=O)Nc3cc(Cl)ccc32)C12CCCCC2
Response given: 101

====

tested on: NCI-H1417 complex spheroids, growth % test/control; assay: Anticancer human tumor NCI-H1417 cell line growth inhibition [Asc]; conditions: second compound 1 µM; first compound 1 µM; stronger effect = lower value;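 also: spheroids exposed to compounds for 7 days; 100% = DMSO vehicle control wells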
Attribute measured: viability, T/C

Challenge: Entry C#Cc1c(F)ccc2cc(O)cc(-c3ncc4c(N5CC6CCC(C5)N6)nc(OCC56CCCN5CC(F)C6)nc4c3F)c12 (stereo not given) + CNC(C)C(=O)NC1CN(S(=O)(=O)c2cccc(S(=O)(=O)N3CCC4CCC(C(=O)NC(c5ccccc5)c5ccccc5)N4C(=O)C(NC(=O)C(C)NC)C3)c2)CCC2CCC(C(=O)NC(c3ccccc3)c3ccccc3)N2C1=O , system NCI-H1417 complex spheroids, growth % test/control: what viability, T/C was measured?
Response given: 84.3%

Challenge: Param item: C=CC(=O)N1CCN(c2nc(=O)n(-c3c(C)ccnc3C(C)C)c3nc(-c4c(O)cccc4F)c(F)cc23)C(C)C1 (stereo not given) + CNC(C)C(=O)NC1CN(S(=O)(=O)c2cccc(S(=O)(=O)N3CCC4CCC(C(=O)NC(c5ccccc5)c5ccccc5)N4C(=O)C(NC(=O)C(C)NC)C3)c2)CCC2CCC(C(=O)NC(c3ccccc3)c3ccccc3)N2C1=O
Response given: 90.2%

Challenge: Param item: O=C(c1ccc(F)c(F)c1Nc1ccc(I)cc1F)N1CC(O)([C@@H]2CCCCN2)C1 + CNC(C)C(=O)NC1CN(S(=O)(=O)c2cccc(S(=O)(=O)N3CCC4CCC(C(=O)NC(c5ccccc5)c5ccccc5)N4C(=O)C(NC(=O)C(C)NC)C3)c2)CCC2CCC(C(=O)NC(c3ccccc3)c3ccccc3)N2C1=O
Response given: 102%

Challenge: Param item: C=CC(=O)N1CCN(c2nc(=O)n(-c3c(C)ccnc3C(C)C)c3nc(-c4c(O)cccc4F)c(F)cc23)C(C)C1 (stereo not given) + Cc1c(S(C)(=O)=O)c(-c2cc(F)cc(N3CCN(c4ccc(NS(=O)(=O)c5ccc(NC(CCN6CCC(C(=O)OCCCP(=O)(O)O)CC6)CSc6ccccc6)c(S(=O)(=O)C(F)(F)F)c5)cc4)CC3)c2)c(-c2ccc(Cl)cc2)n1C(C)C
Response given: 27.2%

Challenge: Param item: C=C(F)C(=O)N1CCN(c2nc(OCC3CCCN3C)nc3c2CCN(c2cccc4cccc(Cl)c24)C3)CC1CC#N (stereo not given) + CNC(C)C(=O)NC1CN(S(=O)(=O)c2cccc(S(=O)(=O)N3CCC4CCC(C(=O)NC(c5ccccc5)c5ccccc5)N4C(=O)C(NC(=O)C(C)NC)C3)c2)CCC2CCC(C(=O)NC(c3ccccc3)c3ccccc3)N2C1=O
Response given: 101%
